- Test system: Stomach
- Protocol details: Biodistribution in stomach of mouse B16F0 cells implanted C57BL/6J mouse assessed per gram of tissue at 0.4 to 5.5 MBq, iv after 0.25 hrs by gamma counter
- Assay type: ADME, organism-based
- Measurement context: in vivo
Readout: Drug uptake (%)

Reference set, count: 2
Smiles: CCN(CC)CCNC(=O)c1ccnc([18F])c1
Drug uptake (%): 13.2
--
Smiles: CCCCN(C)CCCCNC(=O)c1ccc([18F])nc1
Drug uptake (%): 8.5

(P) CCN(CC)CCNC(=O)c1cccnc1[18F]
(Q) CCN(CC)CCNC(=O)c1ccc([18F])nc1
# compare Drug uptake for P vs Q ; return the one with the smaller value API: response body contains the label of the selected item.
Q
(Q: 9.4%, P: 14.7%)

All figures here come from ChEMBL document CHEMBL1152441.
